Target: T1, recombinant human FGFR1c Fc fusion (human, UniProt P11362 141-376)
T1 construct: also called FGFR1IIIc; not shown: Fc part of the FGFR-Fc fusion
T1 sequence: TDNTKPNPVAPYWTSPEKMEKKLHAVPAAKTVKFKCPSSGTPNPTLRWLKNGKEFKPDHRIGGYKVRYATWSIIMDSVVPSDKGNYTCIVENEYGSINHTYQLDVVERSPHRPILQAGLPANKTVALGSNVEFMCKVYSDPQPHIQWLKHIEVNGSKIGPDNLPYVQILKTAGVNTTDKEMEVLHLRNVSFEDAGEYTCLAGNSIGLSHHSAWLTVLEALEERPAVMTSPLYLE
Test: solid phase ELISA on coated FGFR-Fc
Lab note: compare EC50 with 10 pM, writing fulfilled if less and not fulfilled if equal or more.

binder	group
Ab90 (antibody, human IgG2, kappa, V domains shown, format in the assays not spelled out) VH: EVQLLESGGGVVQPGRSLRLSCAASGFTFSSYAMHWVRQAPGKGLEWVAVISYDGSNKYYADSVKGRFTISRDNSKNTLSLQMNSLRVEDTAIYYCVRGAGRGYPYGPDGFDIWGQGTMVTVSS VL: DIVMTQTPLSLSVTPGQPASISCTSSRSLLHSDGKTYVYWYVQKSGQPPQLLIYELSNRFSGVPDRFSGSGSRTDFTLKISRVEAEDVGVYYCMQYVEVPLTFGGGTKVEIKR	not fulfilled
Ab19 (antibody, human IgG2, kappa, V domains shown, format in the assays not spelled out) VH: EVQLLESGGGVVQPGRSLRLSCAASGFTFSSYAMHWVRQAPGKGLEWVAVISYDGSNKYYADSVKGRFTISRDNSKNTLSLQMNSLRVEDTAIYYCVRGAGRGFTLGPDGFDIWGQGTMVTVSS VL: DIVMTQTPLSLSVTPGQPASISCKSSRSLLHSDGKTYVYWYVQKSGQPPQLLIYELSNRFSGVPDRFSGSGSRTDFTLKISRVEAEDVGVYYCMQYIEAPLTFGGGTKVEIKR	fulfilled
Ab60 (antibody, human IgG2, kappa, V domains shown, format in the assays not spelled out) VH: EVQLLESGGGVVQPGRSLRLSCAASGFDFAGYAMHWVRQAPGKGLEWVAVISYDGSNKYYADSVKGRFTISRDNSKNTLSLQMNSLRVEDTAIYYCVRGAGRGLTYGPDGFDIWGQGTMVTVSS VL: DIVMTQTPLSLSVTPGQPASISCTSSRSLLHSDGKTYVYWYVQKSGQPPQLLIYELSNRFSGVPDRFSGSGSRTDFTLKISRVEAEDVGVYYCMQYIEAPLTFGGGTKVEIKR	not fulfilled
Ab15 (antibody, human IgG2, kappa, V domains shown, Format in each assay not spelled out; also called FGF#26) VH: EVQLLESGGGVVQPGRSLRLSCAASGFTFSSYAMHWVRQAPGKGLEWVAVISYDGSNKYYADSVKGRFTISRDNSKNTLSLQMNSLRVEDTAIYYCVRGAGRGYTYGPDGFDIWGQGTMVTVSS VL: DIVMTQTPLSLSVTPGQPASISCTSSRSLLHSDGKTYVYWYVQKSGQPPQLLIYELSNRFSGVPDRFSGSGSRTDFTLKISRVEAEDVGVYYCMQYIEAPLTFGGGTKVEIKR	not fulfilled
Ab92 (antibody, human IgG2, kappa, V domains shown, format in the assays not spelled out) VH: EVQLLESGGGVVQPGRSLRLSCAASGFTFSSYAMHWVRQAPGKGLEWVAVISYDGSNKYYADSVKGRFTISRDNSKNTLSLQMNSLRVEDTAIYYCVRGAGHGFPTGPDGFDIWGQGTMVTVSS VL: DIVMTQTPLSLSVTPGQPASISCRSSRSLLHSDGKTYVYWYVQKSGQPPQLLIYELSNRFSGVPDRFSGSGSRTDFTLKISRVEAEDVGVYYCMQYVEAPLTFGGGTKVEIKR	not fulfilled
